Test system: MDA-MB-468
Protocol Details: Cell growth inhibition assay (CellTiter-Glo), breast cancer cell line MDA-MB-468
Type: cell-based
Measurement Setup: Homo sapiens; MDA-MB-468 cells, 96 hours
Assay Endpoint: IC50 (µM)
Report the figure in µM without appending any unit label.

COc1cc(F)cc(Oc2cc(NC(=O)c3cc4cc5c(cc4s3)OCCC5S(C)(=O)=O)cc(Cl)n2)c1 (stereo not drawn) : 0.0089

Would you mind telling me what IC50 value was observed for CS(=O)(=O)C1CCC(=O)c2cc3sc(C(=O)Nc4cc(Cl)nc(Oc5ccc(Cl)cc5)c4)cc3cc21 (stereo not drawn) ?
0.05

Would you mind telling me what IC50 value was observed for Cc1ccc(Oc2cc(NC(=O)c3cc4cc5c(cc4s3)OCCC5S(C)(=O)=O)cc(Cl)n2)cc1 (stereo not drawn) ?
0.0089

Would you mind telling me what IC50 value was observed for CS(=O)(=O)C1CCOc2cc3sc(C(=O)Nc4cc(Cl)nc(Oc5ccc(Cl)c(F)c5)c4)cc3cc21 (stereo not drawn) ?
0.0025

Would you mind telling me what IC50 value was observed for CS(=O)(=O)C1CCOc2cc3sc(C(=O)Nc4cc(Cl)nc(Oc5ccc(Cl)cc5)c4)cc3cc21 (racemic) ?
0.0032

###

IC50 reference
System: NCI-N87
Protocol Details: Cell growth inhibition assay (CellTiter-Glo), stomach cancer cell line NCI-N87
Type: cell-based
Measurement Setup: Homo sapiens; NCI-N87 cells, 96 hours
Description: The inhibitory effects of the compounds of the present invention against the growth of cancer cells were evaluated as shown below. The cancer cell lines including stomach cancer cell line (NCI-N87) and breast cancer cell line (MDA-MB-468) were cultured under the protocol provided by each supplier. […] Subsequently, the cells were observed under microscope and drug precipitation and particular findings were investigated and recorded. […]
Report the figure in µM without appending any unit label.

CS(=O)(=O)C1CCC(F)(F)c2cc3sc(C(=O)Nc4cc(Cl)nc(Oc5ccc(Cl)cc5)c4)cc3cc21 (stereo not drawn) [Example 14] : 0.16
CS(=O)(=O)[C@H]1CCOc2cc3sc(C(=O)Nc4cc(Cl)nc(Oc5ccc(Cl)cc5)c4)cc3cc21 [Example 43] : 0.015
O=C(Nc1cc(Cl)nc(Oc2ccc(Cl)cc2)c1)c1cc2cc3c(cc2s1)OCCC3N1CCCC1=O (stereo not drawn) [Example 53] : 4.4
CS(=O)(=O)C1CCOc2cc3sc(C(=O)Nc4cc(Cl)nc(Oc5ccc(F)cc5)c4)cc3cc21 (stereo not drawn) [Example 26] : 0.0072
COc1cc(F)cc(Oc2cc(NC(=O)c3cc4cc5c(cc4s3)OCCC5S(C)(=O)=O)cc(Cl)n2)c1 (stereo not drawn) [Example 32] : 0.031

Would you mind telling me what IC50 value was observed for CS(=O)(=O)C1CCOc2cc3sc(C(=O)Nc4cc(Cl)nc(Oc5cccc(C(F)(F)F)c5)c4)cc3cc21 (stereo not drawn) [Example 16] ?
0.021

Would you mind telling me what IC50 value was observed for CS(=O)(=O)N1CCOc2cc3sc(C(=O)Nc4cc(Cl)nc(Oc5ccc(Cl)cc5)c4)cc3cc21 [Example 1] ?
0.0083

Would you mind telling me what IC50 value was observed for CS(=O)(=O)C1CCOc2cc3sc(C(=O)Nc4cc(Cl)nc(Oc5ccc(OC(F)(F)F)cc5)c4)cc3cc21 (stereo not drawn) [Example 28] ?
0.0056

Would you mind telling me what IC50 value was observed for CS(=O)(=O)C1CCC(=O)c2cc3sc(C(=O)Nc4cc(Cl)nc(Oc5ccc(Cl)cc5)c4)cc3cc21 (stereo not drawn) [Example 51] ?
0.2
